biological target: Nuclear receptor ROR-gamma (Mus musculus) (UniProt P51450); experiment: qHTS for inhibitors of ROR gamma transcriptional activity; details: Drosophila S2 Gal4-RORgamma UAS-luciferase reporter, 20 h; series mostly up to 53.6 µM; also: nearly all actives have a fitted effect of over 60% in size
Sequence (P51450 whole entry, looked up, the tested form may be a part): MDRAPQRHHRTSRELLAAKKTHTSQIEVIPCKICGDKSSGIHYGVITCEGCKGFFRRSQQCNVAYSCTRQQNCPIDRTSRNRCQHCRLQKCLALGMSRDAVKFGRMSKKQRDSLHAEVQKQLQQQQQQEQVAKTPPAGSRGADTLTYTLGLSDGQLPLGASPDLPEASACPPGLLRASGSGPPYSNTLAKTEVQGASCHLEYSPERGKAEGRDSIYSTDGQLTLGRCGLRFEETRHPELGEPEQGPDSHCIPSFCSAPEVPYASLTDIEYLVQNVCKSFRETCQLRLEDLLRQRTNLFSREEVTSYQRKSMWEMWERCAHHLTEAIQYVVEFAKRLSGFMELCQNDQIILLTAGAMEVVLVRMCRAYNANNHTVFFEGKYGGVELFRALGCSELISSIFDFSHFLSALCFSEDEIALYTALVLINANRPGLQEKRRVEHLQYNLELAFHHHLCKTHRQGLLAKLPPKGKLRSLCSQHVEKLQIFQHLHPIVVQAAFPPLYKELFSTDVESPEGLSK
In all, about 310,000 compounds went through this assay and about 17,000 (5.5%) were called active. Not shown: some 11% with an inconclusive outcome. Calls follow the shape of the dose curve; as a rule, active = well fitted inhibition curve with a large enough effect; inconclusive = small, poorly fitted or top-dose-only effect, or effect the other way; inactive = no such curve, though single readings can be large or run the other way. The sample as a whole holds a higher share of actives than the screen did.
API: response.call in active, inactive

Cc1cccc(OCC(O)Cn2c(N3CCCCC3)nc3c2c(=O)[nH]c(=O)n3C)c1 (stereo not given) ... inactive
COc1ccccc1C(=O)N/C(=C/c1ccc2c(c1)OCO2)C(=O)Nc1cccc(C(=O)O)c1 ... inactive
Cc1ccc(-c2cc(C(=O)N/N=C/C=C/c3ccccc3)n[nH]2)o1 ... active
COc1ccc(NC(=O)CN2C(=O)COc3ccc(S(=O)(=O)N4CCOCC4)cc32)c(OC)c1 ... inactive
CC(=O)c1cccc(NC(=O)c2cc(C)nn2-c2ccccc2)c1 ... inactive
O=C(Cn1cnc2ccccc21)N/N=C/c1ccco1 ... active
Cc1ccc(-c2cc(C(=O)NN)n[nH]2)o1 ... inactive
Cc1ccc(C(=O)O)cc1NC(=O)c1ccc(Cn2nc(C)c(Cl)c2C)o1 ... inactive
CCC1Sc2ccc(S(=O)(=O)CCC(=O)NCc3cccs3)cc2NC1=O (stereo not given) ... inactive

Kindly provide the recorded test outcome for the following molecule: "O=C(N/N=C/c1ccc2c(c1)OCO2)c1ccc(Cn2cc([N+](=O)[O-])cn2)o1"
inactive
